Cited source: patent US11447466B2

Measured IC50 of individual entries
# System Tested: human TLR8 (Homo sapiens)
# Assay Protocol: TLR8 inhibition reporter assay (HEK-Blue SEAP reporter, R848 stimulation)
# Measurement Context: HEK-Blue cells overexpressing human TLR8, SEAP reporter, R848 15.9 μM, 22 hour incubation
Observed Property: IC50 (nM)

1. COc1cc(-c2[nH]c3ccc(C4CCNCC4)cc3c2C(C)C)cn(C)c1=O [Example 20]: 17
2. CCCN1CCC(c2ccc3[nH]c(-c4cc(-c5cncnc5)c(=O)n(C)c4)c(C(C)C)c3c2F)CC1 [Example 258]: 1.1
3. Cc1cc(-c2[nH]c3ccc(C4CCN(C5CCN(C)C5=O)CC4)cc3c2C(C)C)cn(C)c1=O (centres unmarked) [Example 127]: 5.2
4. Cc1cc(-c2[nH]c3ccc(C4CCN(C5COC5)CC4)cc3c2C(C)C)cn(C)c1=O [Example 171]: 10.4
5. Cc1cc(-c2[nH]c3ccc(C4CCN(CCCC(F)(F)F)CC4)cc3c2C(C)C)cn(C)c1=O [Example 79]: 10.8
6. Cc1cc(-c2[nH]c3ccc(C4CCN(CC(O)C(C)C)CC4)cc3c2C(C)C)cn(C)c1=O (centres unmarked) [Example 324]: 2.8
7. Cc1cc(-c2[nH]c3ccc(C4CCN(CC(C)(C)O)CC4)cc3c2C(C)C)c(C)n(C)c1=O [Example 316]: 1.9
8. C=Cc1cc(-c2[nH]c3ccc(C4CCN(CC(=O)N(C)C)CC4)cc3c2C(C)C)cn(C)c1=O [Example 352]: 31.5

* * *

Measured pIC50 of individual entries
# System Tested: human TLR8 (Homo sapiens, UniProt Q9NR97)
# Sequence (Q9NR97 27-1041): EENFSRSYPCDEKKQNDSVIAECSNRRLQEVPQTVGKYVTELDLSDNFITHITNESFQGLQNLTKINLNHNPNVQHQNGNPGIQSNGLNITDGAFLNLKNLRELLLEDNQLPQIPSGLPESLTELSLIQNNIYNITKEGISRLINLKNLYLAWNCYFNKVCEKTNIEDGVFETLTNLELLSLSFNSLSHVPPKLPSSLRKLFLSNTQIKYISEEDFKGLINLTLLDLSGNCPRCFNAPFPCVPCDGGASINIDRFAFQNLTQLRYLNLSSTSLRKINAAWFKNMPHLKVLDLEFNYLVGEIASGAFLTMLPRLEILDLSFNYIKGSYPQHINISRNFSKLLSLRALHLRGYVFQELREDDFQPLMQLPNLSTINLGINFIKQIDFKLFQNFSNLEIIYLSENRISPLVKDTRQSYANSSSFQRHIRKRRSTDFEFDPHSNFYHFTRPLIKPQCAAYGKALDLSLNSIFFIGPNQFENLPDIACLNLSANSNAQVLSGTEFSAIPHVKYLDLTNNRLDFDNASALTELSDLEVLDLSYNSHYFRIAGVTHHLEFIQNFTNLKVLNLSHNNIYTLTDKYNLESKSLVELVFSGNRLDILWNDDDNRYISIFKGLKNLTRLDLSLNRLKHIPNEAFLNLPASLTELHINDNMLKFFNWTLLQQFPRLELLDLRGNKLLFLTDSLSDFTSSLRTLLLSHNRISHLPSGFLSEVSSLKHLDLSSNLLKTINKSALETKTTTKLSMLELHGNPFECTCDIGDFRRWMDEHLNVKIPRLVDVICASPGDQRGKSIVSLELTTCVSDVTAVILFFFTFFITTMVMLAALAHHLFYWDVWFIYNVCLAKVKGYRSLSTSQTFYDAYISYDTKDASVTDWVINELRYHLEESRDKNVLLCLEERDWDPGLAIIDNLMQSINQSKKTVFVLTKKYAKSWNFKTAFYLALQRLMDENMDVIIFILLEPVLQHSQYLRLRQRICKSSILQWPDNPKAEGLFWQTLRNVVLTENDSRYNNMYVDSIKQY
# Assay Protocol: TLR8 inhibition reporter assay (HEK-Blue SEAP reporter, R848 stimulation)
# Measurement Context: HEK-Blue cells overexpressing human TLR8, SEAP reporter, R848 15.9 μM, 22 hour incubation
# Source text: TLR7/8/9 Inhibition Reporter Assays HEK-Blue™-cells (Invivogen) overexpressing human TLR7, TLR8 or TLR9 receptors were used for screening inhibitors of these receptors using an inducible SEAP (secreted embryonic alkaline phosphatase) reporter gene under the control of the IFN-β minimal promoter fused to five NF-κB and AP-1-binding sites. […]
pIC50: −log10 of the molar value.
Observed Property: pIC50

1) Cc1cc(-c2[nH]c3ccc(C4CCN([C@H]5CCOC[C@@H]5O)CC4)cc3c2C(C)C)cn(C)c1=O: 8.51
2) Cc1cc(-c2[nH]c3ccc(C4CCN(C(=O)CC(C)(C)O)CC4)cc3c2C(C)C)cn(C)c1=O: 7.30
3) Cc1cc(-c2[nH]c3ccc(C4CCN(C5CCOC5)CC4)cc3c2C(C)C)cn(C)c1=O (stereo not shown): 8.09
4) CNC(=O)CN1CCC(c2ccc3[nH]c(-c4cn(C)c(=O)c(C#N)c4C)c(C(C)C)c3c2)CC1: 8.35
5) COc1c(C)c(-c2[nH]c3ccc(C4CCN(C5COC5)CC4)cc3c2C(C)C)cn(C)c1=O: 7.26
6) Cc1cc(-c2[nH]c3ccc(C4CCN(CCC(C)(C)O)CC4)cc3c2C(C)C)c(C)n(C)c1=O: 8.31
7) Cc1cc(-c2cc(-c3[nH]c4ccc(C5CCN(C(C)C)CC5)cc4c3C(C)C)cn(C)c2=O)cnc1F: 7.85
